For each record, write down the corresponding Half-Life t1/2 (min) Mean.
system: cryopreserved human hepatocytes; experiment: Metabolic stability in cryopreserved human hepatocytes; details: 1 µM
One number for each entry, in min.

Examples with their reported Half-Life t1/2 (min) Mean follow.
COMPOUND: CCN(CC)CCN1C(=O)CN=C(c2ccccc2F)c2cc(Cl)ccc21 [Flurazepam]
Half-Life t1/2 (min) Mean: 44
//
COMPOUND: COCCN(CC1CCCN(Cc2ccccc2)C1)S(=O)(=O)c1ccc2ccccc2c1 (racemic) [compound 2]
Half-Life t1/2 (min) Mean: 54

Working through the 2 compounds below one at a time, give Half-Life t1/2 (min) Mean for each.
1. O=c1cc(C(F)(F)F)c2ccc(O)cc2o1 [HFC, 7-hydroxy-4-trifluoromethylcoumarin]
2. C=CCN1CC[C@]23c4c5ccc(O)c4O[C@H]2C(=O)CC[C@@]3(O)[C@H]1C5 [Naloxone]

Found:
[40, 52]
